- system_name: Tyrosyl-tRNA synthetase, putative (Trypanosoma cruzi (strain CL Brener)) (UniProt Q4DSP6)
- Sequence (Q4DSP6 as listed by the source): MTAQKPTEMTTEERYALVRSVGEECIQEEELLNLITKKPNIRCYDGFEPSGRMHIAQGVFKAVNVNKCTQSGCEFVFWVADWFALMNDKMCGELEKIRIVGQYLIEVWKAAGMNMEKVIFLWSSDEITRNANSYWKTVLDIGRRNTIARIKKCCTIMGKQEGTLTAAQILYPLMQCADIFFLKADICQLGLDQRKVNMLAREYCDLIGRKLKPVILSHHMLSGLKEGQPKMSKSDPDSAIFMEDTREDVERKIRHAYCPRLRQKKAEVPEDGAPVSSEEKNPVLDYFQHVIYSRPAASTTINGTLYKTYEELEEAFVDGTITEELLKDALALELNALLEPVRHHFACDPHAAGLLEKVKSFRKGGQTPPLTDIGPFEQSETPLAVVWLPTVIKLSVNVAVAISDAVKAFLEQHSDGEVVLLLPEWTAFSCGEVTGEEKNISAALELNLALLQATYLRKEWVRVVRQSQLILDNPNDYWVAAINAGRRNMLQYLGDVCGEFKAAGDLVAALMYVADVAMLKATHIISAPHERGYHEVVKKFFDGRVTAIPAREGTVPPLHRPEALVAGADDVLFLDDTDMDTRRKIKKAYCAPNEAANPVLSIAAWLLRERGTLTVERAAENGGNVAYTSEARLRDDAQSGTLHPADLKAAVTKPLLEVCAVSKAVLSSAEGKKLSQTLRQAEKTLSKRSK
- test_summary: Trypanosoma cruzi tyrosyl tRNA synthetase (TcYRS) _High Tyrosine SOP
- Assay type: functional
- Design: scale not given: in the data most compounds retested in dose-response had high values
- stated_conditions: 30 µM
parameter: Percent Effect (%)
Could you give me the number in %? Just the number is fine.

Entry under review: c1cc(OCc2ccc3c(c2)OCO3)ccc1CNC1CC1 . Reported Percent Effect?
-2.13

# input compound: CC(C)Nc1nc(N2CCOCC2)nc2c1CN(CC(=O)N(C)C)CC2 ; wanted: its Percent Effect
-1.06

Entry CC(CNC(=O)c1ccccc1Oc1cccnc1)N(C)C (configuration not stated) has what Percent Effect?
3.7

Recorded Percent Effect for COC(=O)c1ccc(N2CCN(C(=O)c3cc(C)on3)C(C)C2)cc1 (configuration not stated) , please?
-2.46

// query Percent Effect value for entry CC(=O)N1CCCC(Cc2cncc(Br)c2)CC1 (configuration not stated)
5.38

Dear colleague, I am looking for the recorded Percent Effect of the following compound: Cc1noc([C@@]23CCO[C@@H]2CCN(C(=O)c2sccc2C)C3)n1
1.04

For the compound shown here, Cc1cnn(CC2CCCCN2C(=O)c2ccc3[nH]nnc3c2)c1 (configuration not stated) , give the reported Percent Effect.
6.67
